Consider the following compounds; for each one, report its IC50.
biological target: MELK (Homo sapiens); assay: Kinase assay: MELK activity, phosphorylation of FITC-labeled histone H3 peptide measured by IMAP fluorescence polarization; assay type: biochemical; settings: 50 micro-M ATP, FITC-labeled histone H3 peptide substrate, IMAP fluorescence polarization; read-out: IC50 (μM) (kinase assay)
Sequence (Q14680 whole entry, looked up): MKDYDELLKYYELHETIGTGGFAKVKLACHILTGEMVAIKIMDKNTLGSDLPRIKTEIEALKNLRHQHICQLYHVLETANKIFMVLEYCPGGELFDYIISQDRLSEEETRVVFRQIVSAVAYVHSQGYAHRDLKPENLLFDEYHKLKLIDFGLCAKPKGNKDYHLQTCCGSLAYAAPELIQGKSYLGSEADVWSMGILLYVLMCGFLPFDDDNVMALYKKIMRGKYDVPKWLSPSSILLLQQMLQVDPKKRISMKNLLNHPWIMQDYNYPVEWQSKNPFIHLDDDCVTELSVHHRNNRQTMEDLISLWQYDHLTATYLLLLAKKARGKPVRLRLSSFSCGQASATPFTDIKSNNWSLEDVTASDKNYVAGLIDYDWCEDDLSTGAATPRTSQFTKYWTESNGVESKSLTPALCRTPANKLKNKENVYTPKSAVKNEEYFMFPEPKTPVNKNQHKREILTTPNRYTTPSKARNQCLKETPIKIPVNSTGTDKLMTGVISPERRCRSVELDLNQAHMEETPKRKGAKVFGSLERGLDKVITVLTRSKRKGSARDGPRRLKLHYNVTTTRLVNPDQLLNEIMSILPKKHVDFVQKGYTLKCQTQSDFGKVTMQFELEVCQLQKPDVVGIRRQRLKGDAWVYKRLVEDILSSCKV
Give just the number in µM; leave the unit off.

What measured IC50 goes with CC(=O)c1cnc2ccc(-c3cc(Cl)c(O)c(Cl)c3)cc2c1Nc1ccc(CN2CCCC2)cc1 ? 0.035

What measured IC50 goes with COc1cc(-c2ccc3ncc(C(=O)C4CC4)c(N4CCC(C(C)N(C)C)CC4)c3c2)cc(Cl)c1O (stereo not drawn) ? 0.0013

What measured IC50 goes with COc1cc(-c2ccc3ncc(C(=O)C4CC4)c(Nc4ccc(CN5CCOCC5)cc4)c3c2)cc(Cl)c1O ? 0.066

What measured IC50 goes with CC(=O)c1cnc2ccc(-c3cc(F)c(O)c(Cl)c3)cc2c1N1CCC(CN2CCCC2)CC1 ? 0.0069

What measured IC50 goes with COc1cc(-c2ccc3ncc(C(=O)C4CC4)c(N[C@H]4CC[C@@H](N)CC4)c3c2)ccc1O ? 0.0019

What measured IC50 goes with N[C@H]1CC[C@H](Nc2c(C(=O)C3CC3)cnc3ccc(-c4cc(Cl)c(O)c(Cl)c4)cc23)CC1 ? 0.0076

What measured IC50 goes with CN(C)Cc1ccc(Nc2c(C(=O)C3CCCC3)cnc3ccc(-c4cc(F)c(O)c(Cl)c4)cc23)cc1 ? 0.014

What measured IC50 goes with O=C(c1cnc2ccc(-c3cc(F)c(O)c(Cl)c3)cc2c1Nc1ccc(CN2CCCC2)cc1)C1CC1 ? 0.0088

What measured IC50 goes with CCN(CC)C1CCC(Nc2c(C(C)=O)cnc3ccc(-c4cc(Cl)c(O)c(OC)c4)cc23)CC1 (stereo not drawn) ? 0.0061

What measured IC50 goes with COc1cc(-c2ccc3ncc(C(=O)C4CC4)c(N4CCC(CN5CCOCC5)CC4)c3c2)cc(Cl)c1O ? 0.0081

What measured IC50 goes with COc1cc(-c2ccc3ncc(C(=O)C4CC4)c(N4CCC(CN(C)C)CC4)c3c2)ccc1O ? 0.0036

What measured IC50 goes with O=C(c1cnc2ccc(-c3cc(F)c(O)c(Cl)c3)cc2c1N1CCN(CCN2CCCC2)CC1)C1CC1 ? 0.0058

What measured IC50 goes with CN(C)CC1CCN(c2c(C(=O)C3CC3)cnc3ccc(-c4ccc(O)c(Cl)c4)cc23)CC1 ? 0.0046

What measured IC50 goes with CN(C)Cc1ccc(Nc2c(C(=O)C3CC3)cnc3ccc(-c4cc(F)c(O)c(Cl)c4)cc23)nc1 ? 0.049

What measured IC50 goes with CN(C)Cc1ccc(Nc2c(C(=O)C3CC3)cnc3ccc(-c4cc(Cl)c(O)c(Cl)c4)cc23)cc1 ? 0.0032
